Just for reference, paper PMC9482650 is where these values come from.

# Target Entity: NHERF2_2, Q15599
# Sequence (Q15599 142-238): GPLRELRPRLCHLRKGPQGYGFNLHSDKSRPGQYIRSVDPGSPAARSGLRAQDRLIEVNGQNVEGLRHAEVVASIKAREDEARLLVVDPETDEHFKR
# Procedure Text: holdup assay
# Design: key: below the threshold = too weak to quantify, mostly under pKd 3.1 to 4
# Cond: plain residues with an end cap or a label only (N-terminal biotin on a linker: ado-ado)
Metric Name: pKd

Guide cases for pKd, answers given:
[
  {
    "Binder": "LSEFKAMDSI [CTNNA1, P35221]",
    "Experimental Result": "below the threshold"
  },
  {
    "Binder": "RRISSLESEV [GRIN2C, Q14957]",
    "Experimental Result": "below the threshold"
  },
  {
    "Binder": "NHSSSPETTA [TRMT13, Q9NUP7]",
    "Experimental Result": "below the threshold"
  },
  {
    "Binder": "RRLPGKETMA [GRIK2, Q13002]",
    "Experimental Result": "below the threshold"
  },
  {
    "Binder": "TKGPRGPTRV [SAPCD1, Q5SSQ6]",
    "Experimental Result": "below the threshold"
  }
]

# input Consider the binder RHGSCVETSL [TMEM151B, Q8IW70] and give its measured pKd.
# output 4.75

# input Consider the binder GQEEQVTTRL [TRPC5, Q9UL62] and give its measured pKd.
# output 4.71

# input Consider the binder SKENVQETQI [LRRC4B, Q9NT99] and give its measured pKd.
# output 3.88
